# ASSAY_COMMENT: Inhibition of Spiroplasma M.SssI using unmethylated DNA as substrate after 2 hrs by agarose gel electrophoresis
MEASURE_NAME: IC50 (nM)
Number only, in nM; omit the unit.

Lookup: GET /values?readout=IC50&item= "O=C(O)[C@H](Cc1c[nH]c2ccccc12)N1C(=O)c2ccccc2C1=O"
Found: 115

---

# TESTED_TARGET: DNA (cytosine-5)-methyltransferase 1 (Homo sapiens)
# Sequence (P26358 whole entry): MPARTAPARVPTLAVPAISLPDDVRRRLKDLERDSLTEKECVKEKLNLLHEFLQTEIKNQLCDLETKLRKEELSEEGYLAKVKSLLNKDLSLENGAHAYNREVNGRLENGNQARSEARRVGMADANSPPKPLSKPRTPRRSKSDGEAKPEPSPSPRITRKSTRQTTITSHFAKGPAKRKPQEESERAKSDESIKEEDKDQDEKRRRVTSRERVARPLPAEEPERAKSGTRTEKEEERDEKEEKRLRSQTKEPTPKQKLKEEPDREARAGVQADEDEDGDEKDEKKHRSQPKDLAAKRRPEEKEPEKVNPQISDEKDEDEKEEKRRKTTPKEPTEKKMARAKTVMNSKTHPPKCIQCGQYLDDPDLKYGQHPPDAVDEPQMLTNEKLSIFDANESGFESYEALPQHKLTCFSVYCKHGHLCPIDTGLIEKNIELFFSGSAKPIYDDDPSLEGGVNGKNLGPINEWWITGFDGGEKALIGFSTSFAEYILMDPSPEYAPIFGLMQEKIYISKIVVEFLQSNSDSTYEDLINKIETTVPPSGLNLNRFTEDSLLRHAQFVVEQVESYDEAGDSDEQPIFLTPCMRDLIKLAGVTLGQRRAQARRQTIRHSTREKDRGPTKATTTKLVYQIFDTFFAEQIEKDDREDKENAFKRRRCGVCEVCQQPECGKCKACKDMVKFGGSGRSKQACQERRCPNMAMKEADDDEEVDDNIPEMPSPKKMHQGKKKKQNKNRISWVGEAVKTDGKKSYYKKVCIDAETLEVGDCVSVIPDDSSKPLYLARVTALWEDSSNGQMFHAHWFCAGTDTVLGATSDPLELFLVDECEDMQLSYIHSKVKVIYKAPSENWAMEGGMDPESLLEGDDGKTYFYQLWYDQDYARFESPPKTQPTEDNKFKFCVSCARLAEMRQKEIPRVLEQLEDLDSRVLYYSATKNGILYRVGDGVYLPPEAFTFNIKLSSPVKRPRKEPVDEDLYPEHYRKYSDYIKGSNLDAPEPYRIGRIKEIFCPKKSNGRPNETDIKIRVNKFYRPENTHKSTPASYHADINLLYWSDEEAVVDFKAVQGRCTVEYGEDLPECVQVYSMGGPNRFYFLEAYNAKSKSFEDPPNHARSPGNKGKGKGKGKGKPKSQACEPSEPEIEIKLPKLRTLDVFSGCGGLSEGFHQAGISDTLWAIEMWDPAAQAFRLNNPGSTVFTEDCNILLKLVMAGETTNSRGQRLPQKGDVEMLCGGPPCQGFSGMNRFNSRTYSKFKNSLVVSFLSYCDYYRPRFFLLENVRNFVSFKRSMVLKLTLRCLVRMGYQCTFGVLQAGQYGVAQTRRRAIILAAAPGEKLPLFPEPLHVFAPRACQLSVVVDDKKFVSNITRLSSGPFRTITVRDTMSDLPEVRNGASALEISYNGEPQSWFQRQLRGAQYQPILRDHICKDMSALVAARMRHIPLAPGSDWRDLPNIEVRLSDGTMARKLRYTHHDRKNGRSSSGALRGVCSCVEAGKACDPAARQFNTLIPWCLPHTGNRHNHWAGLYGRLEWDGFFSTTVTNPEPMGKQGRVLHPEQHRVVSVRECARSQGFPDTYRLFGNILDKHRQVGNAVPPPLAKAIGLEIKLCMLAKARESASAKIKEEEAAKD
# ASSAY_COMMENT: Inhibition of human recombinant DNMT1 expressed in […] assessed as inhibition of tritiated methyl incorporation from [3H]-labeled AdoMet into hemimethylated DNA duplex after 2 hrs by liquid scintillation counting analysis
MEASURE_NAME: IC50

O=C(O)[C@H](Cc1csc2ccccc12)N1C(=O)c2ccccc2C1=O = 230 µM
O=C(O)[C@H](Cc1c[nH]c2ccccc12)NSc1ccc([N+](=O)[O-])cc1[N+](=O)[O-] = 40 µM
O=C(O)[C@H]1[C@@H](Cc2c[nH]c3ccccc23)CCN1C(=O)c1ccccc1 = 73 µM
O=C(O)[C@H]1[C@@H](Cc2c[nH]c3ccccc23)CCN1C(=O)c1ccc2ccccc2c1 = 50 µM
O=C(O)[C@@H]1[C@H](Cc2c[nH]c3ccccc23)CCN1C(=O)c1ccccc1 = 98 µM

Lookup: GET /values?readout=IC50&item= "O=C(O)[C@H](Cc1c[nH]c2ccccc12)NSc1ncccc1[N+](=O)[O-]"
Found: 20 µM

Lookup: GET /values?readout=IC50&item= "O=C(O)[C@@H]1[C@H](Cc2c[nH]c3ccccc23)CCN1Sc1ccc([N+](=O)[O-])cc1[N+](=O)[O-]"
Found: 80 µM

Lookup: GET /values?readout=IC50&item= "O=C(O)[C@H](Cc1c[nH]c2ccccc12)N1C(=O)c2ccccc2C1=O"
Found: 390 µM

Lookup: GET /values?readout=IC50&item= "O=C(O)[C@@H]1[C@H](Cc2c[nH]c3ccccc23)CCN1C(=O)c1ccc2ccccc2c1"
Found: 128 µM

---

# ASSAY_COMMENT: Inhibition of G9a (unknown origin) by [3H]-SAM incorporation assay
pIC50: −log10 of the molar value.
MEASURE_NAME: pIC50

Lookup: GET /values?readout=pIC50&item= O=C(O)C1C(Cc2c[nH]c3ccccc23)CCN1C(=O)c1ccccc1 (stereo unspecified)
Found: < 3.00
